Catalogue of 2-Deoxyribose degradation (%) values
experiment: Hydroxyl radical scavenging activity (2-deoxyribose degradation, Fenton reaction); conditions: 25 μg/mL
Marks after values point to notes of the source that are not given here.

Below: 5 compounds and their reported 2-Deoxyribose degradation (%).
[[record]]
compound = "COc1ccc(CCNC(=O)c2ccccc2)cc1OC [Rip-B]"
observed = "47.7 ± 0.44 ^a %"

[[record]]
compound = "O=C(NCCc1ccccc1)c1c(O)cccc1O [Rip-E, 2,6-Dihydroxy-N-phenethylbenzamide]"
observed = "51.4 ± 1.47 ^a %"

[[record]]
compound = "O=C(NCCc1ccccc1)c1ccccc1 [Rip-A, N-Phenethylbenzamide]"
observed = "49.6 ± 0.89 ^a %"

[[record]]
compound = "O=C(NCCc1ccccc1)c1ccccc1O [Rip-C, 2-Hydroxy-N-phenethylbenzamide]"
observed = "52.1 ± 0.13 ^a %"

[[record]]
compound = "COc1ccc(CCNC(=O)c2ccccc2O)cc1OC [Rip-D]"
observed = "51.9 ± 1.27 ^a %"


Exam item: // lookup 2-Deoxyribose degradation (%) for COc1ccc(CCNC(=O)c2c(O)cccc2O)cc1OC [Rip-F]
Marked response: 55.1 ± 1.78 ^a %

----------
Entries and their measured TBARS levels (% AAPH) follow.
assay: Antioxidant potential against the formation of TBARS (AAPH-induced lipid peroxidation of egg yolk homogenate); conditions: 1 μg/mL
Marks after values point to notes of the source that are not given here.

Examples from the recorded data:
[[record]]
molecule = "COc1ccc(CCNC(=O)c2ccccc2)cc1OC"
endpoint = "TBARS levels (% AAPH)"
observed = "44.5 ± 1.31 ^a %"

[[record]]
molecule = "COc1ccc(CCNC(=O)c2c(O)cccc2O)cc1OC"
endpoint = "TBARS levels (% AAPH)"
observed = "38.8 ± 0.99 ^a %"

[[record]]
molecule = "O=C(NCCc1ccccc1)c1ccccc1O [Rip-C, 2-Hydroxy-N-phenethylbenzamide]"
endpoint = "TBARS levels (% AAPH)"
observed = "39.3 ± 0.60 ^a %"


Exam item: // lookup TBARS levels (% AAPH) for `COc1ccc(CCNC(=O)c2ccccc2O)cc1OC`
Marked response: 41.2 ± 0.96 ^a %

Exam item: I would be grateful if you could share the reported TBARS levels (% AAPH) for O=C(NCCc1ccccc1)c1c(O)cccc1O [Rip-E, 2,6-Dihydroxy-N-phenethylbenzamide] .
Marked response: 41.4 ± 0.69 ^a %

Exam item: Look up TBARS levels (% AAPH): O=C(NCCc1ccccc1)c1ccccc1 [Rip-A, N-Phenethylbenzamide]
Marked response: 40.9 ± 1.77 ^a %
